// data source = PubChem BioAssay (NCI)

test system: SR leukemia; assay: NCI tumour cell line growth inhibition, 48 h
MEASUREMENT NAME: TGI

For every listed record, write down its TGI.
1. O=c1[nH]c2ccc(N=Cc3c(O)[nH]c4ccccc34)cc2[nH]1
2. CN(C)c1ccc(/C=N/N=C2\C(=O)Nc3c(Cl)cc(Cl)cc32)cc1
3. C=C=C(C)C(=O)N(C(C)C)C(C)C
4. N#C/C(=C\c1cc(Br)c(O)c(Br)c1)c1ccccn1

1: > 25 µM; 2: 33 µM; 3: > 100 µM; 4: > 100 µM

----------
test system: NCI-H226 lung; test: NCI tumour cell line growth inhibition, 48 h
Would you kindly list TGI for each of these compounds?

For every listed record, write down its TGI.
1. Clc1ccc(CSC2=NCCN2)cc1Cl
2. O=[N+]([O-])c1ccc2scc3c4ccccc4nc-3c2c1
3. CC1(C)CC(=O)c2c(nc3c(ccc4ccccc43)c2-c2ccc(NC(=O)CCCC(=O)Nc3ccc(-c4c5c(nc6c4ccc4ccccc46)CC(C)(C)CC5=O)cc3)cc2)C1
4. COc1ccc2c(c1OC)CO[C@@H]2[C@H]1c2c(c(Br)c3c(c2OC)OCO3)CCN1C
5. O=C(NC1C2CC3CC(C2)CC1C3)c1ccncn1 (stereo not given)
6. Nc1ncnc2nc(N3CCN(CCO)CC3)[nH]c12

["42.3 µM", "6.08 µM", "> 100 µM", "32.3 µM", "> 100 µM", "> 100 µM"]

For every listed record, write down its TGI.
1. COc1ccc(OC)c(NC(=O)c2c(Cl)c(Cl)c(Cl)c(Cl)c2-c2nc3ccccc3[nH]2)c1
2. C/C(CC(=O)Nc1ccc(C)c(C)c1)=N\NC(N)=S
3. CC(O)(CCCCCl)c1nc2ccccc2s1 (stereo not given)
4. COc1ccccc1-n1c(C)nc2ccccc2c1=O

1: > 100 µM; 2: > 100 µM; 3: > 100 µM; 4: > 100 µM

----------
test system: K-562 leukemia; assay: NCI tumour cell line growth inhibition, 48 h
Would you kindly list TGI for each of these compounds?

Clc1ccc(C2=NOC(C3CCCCC3)C2)cc1 (stereo not given)
> 100 µM
CC1(C)CC(=O)c2c(nc3c(ccc4ccccc43)c2-c2ccc(NC(=O)CCCC(=O)Nc3ccc(-c4c5c(nc6c4ccc4ccccc46)CC(C)(C)CC5=O)cc3)cc2)C1
> 100 µM
CSc1nc(=Nc2ccccc2)sn1-c1ccccc1
30.1 µM
CC(C)(C)C(=O)CC1(O)C=C(O)C(O)(CC(=O)C(C)(C)C)O1 (stereo not given)
> 100 µM

Proceeding to the next compound to report its TGI.
If you can, please state the reported TGI value of O=C1OC(CC(=O)c2ccccc2Cl)C(Cl)=C1Cl (stereo not given) .
> 100 µM

----------
tested on: HT29 colon; experiment: NCI tumour cell line growth inhibition, 48 h
MEASUREMENT NAME: TGI

A selection of reference data follows.
COC(=O)C1=C(c2cc(OC)c(OC)c(OC)c2)OC(c2ccc3c(c2)OCO3)C1 (configuration not stated)
97.5 µM
ClC1=C(Cl)C(Cl)=C(Cl)C1=Cc1ccccc1
2.27 µM

For every listed record, write down its TGI.
1. O=C(Nc1ccc(Oc2cccc(Cl)c2)c(Cl)c1)c1cnccn1
2. COc1ccccc1-n1c(C)nc2ccccc2c1=O
3. COC(=O)CCC1(NS(=O)(=O)c2ccc(C)cc2)CCC(C(C)(C)C)CC1 (configuration not stated)
4. COc1cc(-c2nn(-c3ccc(NC(=O)NCCCNC(=O)c4ccccc4)cc3)cc2-c2ccncc2)ccc1Cl
5. O=Cc1c(Cn2ccnc2)c2cc([N+](=O)[O-])ccc2n1Cc1ccccc1
6. c1ccc(CSSSCc2ccccc2)cc1

1. > 20.3 µM
2. > 100 µM
3. 31.8 µM
4. 2.16 µM
5. > 100 µM
6. 19.6 µM

For every listed record, write down its TGI.
1. O=c1ccn(C2OC(COC3CCCCO3)C(OC3CCCCO3)C2OC2CCCCO2)c(=O)n1-c1ccccc1 (configuration not stated)
2. CC1(C)CC(=O)c2c(nc3c(ccc4ccccc43)c2-c2ccc(NC(=O)CCCC(=O)Nc3ccc(-c4c5c(nc6c4ccc4ccccc46)CC(C)(C)CC5=O)cc3)cc2)C1
3. Clc1ccc(CSC2=NCCN2)cc1Cl
4. O=C(O)c1sccc1O
5. CCCCn1c(C)c(C(=O)CC)c(C(=O)NCCN2CCN(c3ccccc3Cl)CC2)c1C
6. COCCCCCC(=O)CP(=O)(OC)OC
7. CN(C)c1ccc(/C=N/N=C2\C(=O)Nc3c(Cl)cc(Cl)cc32)cc1

1. > 100 µM
2. > 100 µM
3. 28.4 µM
4. > 100 µM
5. 29.2 µM
6. > 100 µM
7. > 100 µM

For every listed record, write down its TGI.
1. Cc1ccc(Nc2nc(C)c(C(=O)CC(=O)C(=O)Nc3c(C)cccc3C(C)(C)C)s2)cc1
2. O=C(O)COc1cc(-c2ccccc2)nc2ccc(F)cc12
3. CC(=O)NC1=C(C)C(=O)c2c(nc3n2CCC3OC(=O)c2ccccc2)C1=O (configuration not stated)
4. Cc1nc2ccccc2c(=O)n1NC(=S)Nc1ccccc1
5. O=C(NC1C2CC3CC(C2)CC1C3)c1ccncn1 (configuration not stated)
6. O=[N+]([O-])c1nccn1COCCI
7. COc1ccc2c(c1OC)CO[C@@H]2[C@H]1c2c(c(Br)c3c(c2OC)OCO3)CCN1C

1. > 100 µM
2. > 100 µM
3. 3.48 µM
4. > 100 µM
5. > 100 µM
6. > 100 µM
7. > 100 µM

For every listed record, write down its TGI.
1. CO/C(N)=C(\C#N)N=Cc1cccnc1
2. CC(=O)Oc1ccc2oc(=O)cc(C)c2c1
3. CCC1([N+](=O)[O-])CC2C=CC1C2 (configuration not stated)
4. Cc1ccc(C)c(COc2cc(NC(=O)c3ccc4c(c3)OCO4)ccc2N(C)S(C)(=O)=O)c1
5. Cn1c(=O)c2c(ncn2Cc2ccc(O)c([N+](=O)[O-])c2)n(C)c1=O
6. O=C1CCC(C(=O)O)C2=C1CCCC2 (configuration not stated)
7. C=CCN1C2Cc3cc(OC)c(OC)cc3C1Cc1cc(OC)c(OC)cc12

["> 100 µM", "> 100 µM", "> 100 µM", "2.34 µM", "> 100 µM", "> 100 µM", "> 100 µM"]

For every listed record, write down its TGI.
1. Nc1ccc2c(c1)Cc1ccccc1-2
2. COc1cc(OC)cc(C2C(C#N)=C(N)Oc3c2ccc2ccc(O)cc32)c1 (configuration not stated)

1: > 100 µM; 2: 5.83 µM

For every listed record, write down its TGI.
1. CCCCOC(=O)NC(c1ccccc1)C(O)C(=O)OC1C[C@@]2(O)C(OC(=O)c3ccccc3)C3[C@](C)(C(=O)[C@H](OC(C)=O)C(=C1C)C2(C)C)[C@@H](O)C[C@H]1OC[C@@]31OC(C)=O (some centres not stated)
2. CC1SC(c2ccc(Cl)c(Cl)c2)N(NC(=O)C(O)c2ccccc2)C1=O (configuration not stated)
3. O=C(/C=C/c1cccc([N+](=O)[O-])c1)c1cccnc1
4. O=c1oc2ccc(Cl)cc2cc1C1=CSC2=NCCN12
5. CCn1cc(C(=O)N/N=C/c2ccc(Br)cc2)c(=O)c2cc(F)c(N3CCNC(C)C3)c(F)c21 (configuration not stated)
6. CCn1ncc(Oc2c(Cl)cc(N)cc2Cl)c(Cl)c1=O

["6.81 µM", "> 100 µM", "42.9 µM", "36.3 µM", "3.18 µM", "58.5 µM"]

For every listed record, write down its TGI.
1. CCNC(=S)NNC(=O)c1csc(NC(=S)NC2CCCCC2)n1
2. Cn1nc(N)nc1N=S(C)(C)=N
3. COC(=O)c1c2c(c3[nH]c4ccccc4c3c1C(=O)OC)C(=O)C1=C(C2=O)C2(Cl)C(Cl)C(Cl)C1(Cl)C2(Cl)Cl (configuration not stated)
4. CCOC(=O)/C=C(/OCC)[C@@H]1C(C(=O)c2ccc(Cl)cc2)[C@H]1/C(=C\C(=O)OCC)OCC (some centres not stated)

1. > 100 µM
2. > 100 µM
3. 7.07 µM
4. > 100 µM

If you can, please state the reported TGI value of CC(=O)OCC1OC(N2C(=S)N[C@H]([C@@H](O)[C@H](O)[C@H](O)CO)[C@H]2O)C(OC(C)=O)C(OC(C)=O)C1OC(C)=O (some centres not stated) .
> 100 µM
